# TESTED_ON: human vasopressin V2 receptor subtype (Homo sapiens)
# Construct: host or cells: CHO cells, stably transfected (pZeoSV vector); membranes
# Sequence (P30518 whole entry): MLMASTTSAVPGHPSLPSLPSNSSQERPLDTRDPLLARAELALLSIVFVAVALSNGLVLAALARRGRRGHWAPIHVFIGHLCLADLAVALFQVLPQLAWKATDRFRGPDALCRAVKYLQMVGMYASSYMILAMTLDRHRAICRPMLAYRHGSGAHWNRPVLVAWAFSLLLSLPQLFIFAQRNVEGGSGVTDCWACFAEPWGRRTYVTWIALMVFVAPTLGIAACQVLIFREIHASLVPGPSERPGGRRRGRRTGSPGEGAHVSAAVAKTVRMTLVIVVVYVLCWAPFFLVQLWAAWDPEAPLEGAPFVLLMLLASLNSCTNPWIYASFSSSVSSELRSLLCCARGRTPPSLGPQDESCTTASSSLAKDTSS
# METHOD_SUMMARY: Vasopressin binding in CHO cell membranes expressing human vasopressin V2 subtype receptors ([3H]arginine vasopressin)
# CONDITIONS_USED: 100 nM, values without parentheses
ASSAY_READOUT: inhibition at 0.1 µM (%)

>>> val("CC1=C(c2ccc(C(=O)N3Cc4cccn4Cc4ccccc43)cc2)CCCC1O (centres unmarked) [Example 27]")
58
>>> val("Cc1cc(C(=O)N2Cc3cccn3Cc3ccccc32)ccc1C1=CC(=O)CCC1 [Example 39]")
38
>>> val("O=C(c1ccc(C2=CC(O)CCC2)cc1)N1Cc2cccn2Cc2ccccc21 (centres unmarked) [Example 25]")
39

(I) Cc1cc(C(=O)N2Cc3cccn3Cc3ccccc32)ccc1C1=CCCCC1 [Example 2]
(II) Cc1cc(C(=O)N2Cc3cccn3Cc3ccccc32)ccc1C1=CC(C)(C)CC(C)(C)C1 [Example 37]
For this pair, I and II , which shows a numerically higher inhibition at 0.1 µM? State the label of the item chosen.
I
(I: 42%, II: 20%)
